B1: VH:VL chains; a variant is named by its letters at X, in order (parent)
chain 1: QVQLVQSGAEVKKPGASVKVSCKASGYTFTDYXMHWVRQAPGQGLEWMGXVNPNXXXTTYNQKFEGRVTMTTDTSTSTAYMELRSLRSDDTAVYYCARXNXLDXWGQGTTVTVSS
chain 2: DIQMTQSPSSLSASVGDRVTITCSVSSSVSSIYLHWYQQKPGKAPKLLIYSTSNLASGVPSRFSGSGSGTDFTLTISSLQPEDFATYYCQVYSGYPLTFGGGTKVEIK

Variants of: B1
test: yeast display scFab, FACS + sequencing
reported.conditions: with MET
This is one part of the list. The hit rate among all sequences tested is not known here.
experimental.endpoint: antigen binding call

For orientation, consider the following solved cases.
{"columns": ["mutation.string", "antigen binding call"],
 "data": [
  ["FRGAGSVA", "binds"],
  ["YTRGASSS", "binds"],
  ["VRGRGVGY", "binds"],
  ["VRGKGDWV", "no binding"]
]}

Exercise: So what's the measured antigen binding call for this one? SREAASGV
Key: no binding

Exercise: So what's the measured antigen binding call for this one? YTRGADGS
Key: no binding

Exercise: So what's the measured antigen binding call for this one? YRRRGFGY
Key: binds

Exercise: So what's the measured antigen binding call for this one? SRGKGSGV
Key: binds

Exercise: So what's the measured antigen binding call for this one? VEGGGDWS
Key: no binding

Exercise: So what's the measured antigen binding call for this one? YEGGGFSV
Key: no binding

Exercise: So what's the measured antigen binding call for this one? SEEEGASV
Key: no binding

Exercise: So what's the measured antigen binding call for this one? YRGAGSVD
Key: binds
